- System: H3255
- assay-overview: relative viability (nuclei count vs DMSO), 5 days (fraction); higher = more cells survive
- experimental-setup: first compound 8 µM
assay-readout: relative viability
Note: the reply should be a number with no unit written.

Some molecules with known relative viability results, for comparison:
[[record]]
molecule = "C=C1C(=O)O[C@@H](CCCCCCCC)[C@@H]1C(=O)O [C-75] + CC1(C)CCC(c2ccc(Cl)cc2)=C(CN2CCN(c3ccc(C(=O)NS(=O)(=O)c4ccc(N[C@H](CCN5CCOCC5)CSc5ccccc5)c(S(=O)(=O)C(F)(F)F)c4)cc3)CC2)C1 [Navitoclax] (partner 0.5 µM)"
data_value = 0.577

[[record]]
molecule = "C=C1C(=O)O[C@@H](CCCCCCCC)[C@@H]1C(=O)O [C-75] + Cc1nc(NC(=O)N2CCC[C@H]2C(N)=O)sc1-c1ccnc(C(C)(C)C(F)(F)F)c1 [Alpelisib] (partner 2 µM)"
data_value = 0.78


Query: Bench note: what relative viability did C=C1C(=O)O[C@@H](CCCCCCCC)[C@@H]1C(=O)O [C-75] + Cc1nc(Nc2ncc(C(=O)Nc3c(C)cccc3Cl)s2)cc(N2CCN(CCO)CC2)n1 [Dasatinib] (partner 0.075 µM) show?
Reply: 0.437

Query: Bench note: what relative viability did C=C1C(=O)O[C@@H](CCCCCCCC)[C@@H]1C(=O)O [C-75] + CC(=O)Nc1cccc(-n2c(=O)n(C3CC3)c(=O)c3c(Nc4ccc(I)cc4F)n(C)c(=O)c(C)c32)c1 [Trametinib] (partner 0.02 µM) show?
Reply: 0.666

Query: Bench note: what relative viability did C=C1C(=O)O[C@@H](CCCCCCCC)[C@@H]1C(=O)O [C-75] + Nc1ncn([C@H]2C[C@H](O)[C@@H](CO)O2)c(=O)n1 [Decitabine] (partner 2 µM) show?
Reply: 0.652
